method_description: Half life in human hepatocytes at 1 uM by LC-MS/MS analysis
Assay type: ADME, cell-based, Hepatocyte
Assignment: determine reported half-life at 1 µM for the given molecules.

>>> assay_value("CON(C)C(=O)/C=C/C=C(\\C)[C@@H]1C/C=C/C=C/[C@H](O)[C@H](C)[C@@H](O)[C@@H](CCC(C)=O)C(=O)N[C@@H](C(C)C)C(=O)N[C@@H](Cc2cccc(O)c2)C(=O)N2CCCC(N2)C(=O)O1 (some centres not stated)")
"> 4 h"

Then there is this molecule:
Form field half-life at 1 µM, entry CC(=O)CC[C@H]1C(=O)N[C@@H](C(C)C)C(=O)N[C@@H](Cc2cccc(O)c2)C(=O)N2CCCC(N2)C(=O)O[C@H](/C(C)=C/C=C/C(=O)NC2CCCCC2)C/C=C/C=C/[C@H](O)[C@H](C)[C@H]1O (stereo in doubt) : > 4 h
